src = patent US8293705B2

Biological target: HCV NS3/4A 1b protease D168A (Hepatitis C virus genotype 1b, UniProt Q9WMX2, D1194A)
Construct: 10× stocks of NS3/4A protease enzyme from Bioenza (Mountain View, Calif.); purchased Bioenza (Mountain View, Calif.)
Sequence (Q9WMX2 1027-1657 D1194A): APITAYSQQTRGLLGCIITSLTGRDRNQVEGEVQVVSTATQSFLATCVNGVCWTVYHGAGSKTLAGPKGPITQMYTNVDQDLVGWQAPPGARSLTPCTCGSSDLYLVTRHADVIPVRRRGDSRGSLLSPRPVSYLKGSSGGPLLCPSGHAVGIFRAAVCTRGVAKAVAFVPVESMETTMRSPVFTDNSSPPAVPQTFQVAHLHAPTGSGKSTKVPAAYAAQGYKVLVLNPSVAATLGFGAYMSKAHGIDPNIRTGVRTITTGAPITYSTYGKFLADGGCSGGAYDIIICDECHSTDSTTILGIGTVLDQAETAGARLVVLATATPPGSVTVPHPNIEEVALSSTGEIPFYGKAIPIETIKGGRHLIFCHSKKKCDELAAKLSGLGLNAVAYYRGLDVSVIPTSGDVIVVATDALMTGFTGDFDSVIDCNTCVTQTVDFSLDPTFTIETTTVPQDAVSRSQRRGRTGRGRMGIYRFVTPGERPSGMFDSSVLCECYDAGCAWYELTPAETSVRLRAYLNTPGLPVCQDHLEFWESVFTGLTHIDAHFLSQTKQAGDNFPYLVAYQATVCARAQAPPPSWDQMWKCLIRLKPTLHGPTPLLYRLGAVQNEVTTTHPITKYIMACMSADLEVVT
Sequence (Q9WMX2 1658-1711 partner limits assumed): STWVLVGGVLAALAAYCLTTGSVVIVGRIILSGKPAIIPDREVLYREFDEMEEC
Assay: HCV protease FRET assay (IC50_APP), Example 16
Assay type: biochemical
Experimental: The following protocol was used to generate “apparent” IC50 (IC50 APP) values as depicted in Table 6, below. […] Protease reactions were immediately started after enzyme addition with the addition of 45 μL of the FRET substrate and monitored for 60-90 minutes at λex485/λem520 in a Synergy^4 plate reader from BioTek (Winooski, Vt.). […]
pIC50: −log10 of the molar value.
Property: pIC50

C=CC(=O)N(C)C[C@H](NC(=O)OC1CCCC1)C(=O)N1C[C@H](OC(=O)N2Cc3cccc(F)c3C2)C[C@H]1C(=O)N[C@]1(C(=O)NS(=O)(=O)C2CC2)C[C@H]1C=C | 7.00 to 8.00
C=C[C@@H]1C[C@]1(NC(=O)[C@@H]1CC(OC(=O)N2Cc3cccc(F)c3C2)CN1C(=O)[C@H](CC(=O)C(=C)C)NC(=O)OC(C)(C)C)C(=O)NS(=O)(=O)C1CC1 (some centres unmarked) | > 8.00
CC[C@@H]1C[C@]1(NC(=O)[C@@H]1C[C@@H]2CN1C(=O)[C@H](CCC(=O)C=C(C)C)NC(=O)OCC(C)(C)CC/C=C/c1cccc3c1CN(C3)C(=O)O2)C(=O)NS(=O)(=O)C1CC1 | 6.00 to 7.00

# returns recorded pIC50 (system: HCV NS3/4A 1b protease D168A (Hepatitis C virus genotype 1b, UniProt Q9WMX2, D1194A)) for `C=C[C@@H]1C[C@]1(NC(=O)[C@@H]1C[C@@H](OC(=O)N2Cc3cccc(F)c3C2)CN1C(=O)[C@H](COC(=O)/C=C/C=C/C)NC(=O)OC(C)(C)C)C(=O)NS(=O)(=O)C1CC1` 6.00 to 7.00

Notebook entry, HCV NS3/4A 1b protease D168A (Hepatitis C virus genotype 1b, UniProt Q9WMX2, D1194A) assay: pIC50 of C=CC(=O)N1CC/C=C\[C@@H]2C[C@@]2(C(=O)NS(=O)(=O)C2CC2)NC(=O)[C@@H]2CC(OC(=O)N3Cc4cccc(F)c4C3)CN2C(=O)[C@@H](NC(=O)OC(C)(C)C)CC1 (some centres unmarked) = ? > 8.00
